- ASSAY_EXPLANATION: recombinant UMI read abundance after kanamycin selection (control-corrected) (log10(CPM+1)); higher = more efficient recombination; extreme values may be limits of the assay; sequences stand for … in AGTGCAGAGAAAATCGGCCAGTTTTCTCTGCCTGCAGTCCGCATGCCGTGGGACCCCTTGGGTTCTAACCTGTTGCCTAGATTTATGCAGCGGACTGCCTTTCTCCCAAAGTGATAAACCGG…AGGTTGGTTTCACT; site = the 11-nt donor
QUANTITY_MEASURED: recombinant UMI read abundance (log10)
// no unit string in output, number only

Solved entries (count: 5):
{"columns": ["SEQUENCE_CHAIN", "QUANTITY_MEASURED", "MEAS_VALUE"],
 "data": [
  ["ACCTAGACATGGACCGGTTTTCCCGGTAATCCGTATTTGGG (site ACCTCGACTCC)", "recombinant UMI read abundance (log10)", 0.00246],
  ["TATTTGGCATGGACCGGTTTTCCCGGTAATCCGTATTTGTA (site TATTTGGCTAA)", "recombinant UMI read abundance (log10)", 0.00533],
  ["GAGCTCTCATGGACCGGTTTTCCCGGTAATCCGTATTTGAT (site GAGCTCACTAT)", "recombinant UMI read abundance (log10)", 0.0184],
  ["AGAATGACATGGACCGGTTTTCCCGGTAATCCGTATTTGCA (site AGGAAGACTTG)", "recombinant UMI read abundance (log10)", 1.53],
  ["TGTCGGACATGGACCGGTTTTCCCGGTAATCCGTATTTGCG (site TGTCGGACTCG)", "recombinant UMI read abundance (log10)", 1.4]
]}

In: Please report the measured recombinant UMI read abundance (log10) for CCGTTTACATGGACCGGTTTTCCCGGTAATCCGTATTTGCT (site CCGTTGACTAG)
Out: 0

In: Please report the measured recombinant UMI read abundance (log10) for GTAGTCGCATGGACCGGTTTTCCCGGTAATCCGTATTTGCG (site GTAGTTGCTCG)
Out: 0.00541

In: Please report the measured recombinant UMI read abundance (log10) for AGGCATACATGGACCGGTTTTCCCGGTAATCCGTATTTGCA (site AGGCATACTTG)
Out: 2.15

In: Please report the measured recombinant UMI read abundance (log10) for TAGTACTCATGGACCGGTTTTCCCGGTAATCCGTATTTGCT (site TAGTACTCTAG)
Out: 2.94

* * *

- ASSAY_EXPLANATION: recombinant barcode read abundance after kanamycin selection (control-corrected) (log10(CPM+1)); higher = more efficient recombination; sequences stand for … in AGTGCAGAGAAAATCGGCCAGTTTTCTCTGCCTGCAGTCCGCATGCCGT…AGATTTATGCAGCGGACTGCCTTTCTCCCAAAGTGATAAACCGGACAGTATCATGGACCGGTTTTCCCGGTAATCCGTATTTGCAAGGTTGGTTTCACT; site = the 11-nt target
Criterion: recombinant barcode read abundance (log10) meeting or surpassing 0.07. Met: TRUE. Not met: FALSE.

Past entries and their recorded results:
{"columns": ["SEQUENCE_CHAIN", "CLASS"],
 "data": [
  ["GCGGTTCCTTGGGTTCTAACCTGTTGCCT (site GCGGTTCCTAG)", "TRUE"],
  ["AAGTATCCTTGGGTTCTAACCTGTTGCGG (site AGGGATCCTCC)", "TRUE"],
  ["TGTATGACTTGGGTTCTAACCTGTTGCCT (site GGTATGACTAG)", "TRUE"],
  ["TCAAAGCCTTGGGTTCTAACCTGTTGCTG (site TCAAAGCCTCA)", "TRUE"],
  ["GCAGGGACTTGGGTTCTAACCTGTTGCAG (site GCAGGGACTCT)", "TRUE"],
  ["AACTAGTCTTGGGTTCTAACCTGTTGCTA (site AACCAGTCTTC)", "FALSE"],
  ["CCGCCCTCTTGGGTTCTAACCTGTTGCCT (site CAGCCCTCTAG)", "FALSE"],
  ["AGAGGGTCTTGGGTTCTAACCTGTTGCCT (site AGAGGGTCTAG)", "TRUE"],
  ["TACGTGGCTTGGGTTCTAACCTGTTGCCT (site TACGCGGCTAG)", "FALSE"],
  ["GTGCTTACTTGGGTTCTAACCTGTTGCCT (site GGGCTTACTAG)", "FALSE"]
]}

In: Check this sequence for recombinant barcode read abundance (log10) at or above 0.07: CCGCGCTCTTGGGTTCTAACCTGTTGCTG (site ACGAGCTCTCA)
Out: FALSE

In: Check this sequence for recombinant barcode read abundance (log10) at or above 0.07: GCACGACCTTGGGTTCTAACCTGTTGCCT (site GCACCACCTAG)
Out: FALSE

In: Check this sequence for recombinant barcode read abundance (log10) at or above 0.07: TGGAGCCCTTGGGTTCTAACCTGTTGCAG (site TGGAGCCCTCT)
Out: TRUE

In: Check this sequence for recombinant barcode read abundance (log10) at or above 0.07: CGGAGCCCTTGGGTTCTAACCTGTTGCGG (site AGGAGCCCTTC)
Out: TRUE

In: Check this sequence for recombinant barcode read abundance (log10) at or above 0.07: CTCTAGTCTTGGGTTCTAACCTGTTGCAT (site CTCTAGTCTAC)
Out: TRUE

In: Check this sequence for recombinant barcode read abundance (log10) at or above 0.07: TAGCATGCTTGGGTTCTAACCTGTTGCAT (site TAGCATGCTTT)
Out: FALSE
